This collection of values is drawn from PubChem BioAssay (NCI).

assay: NCI Yeast Anticancer Drug Screen. Data for the rad50 strain (AID 155);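 note: 0% = growth of vehicle-only cultures of the same strain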; details: S. cerevisiae rad50 strain growth inhibition; at 50.0 µM; hits give high values
About 79,000 compounds went through this panel and 15% of them were active in at least one assay; those are over-represented in the sample as a whole.
Exercise: for every item that follows, state its recorded growth inhibition.
State just the number; it will be interpreted in %.

Please fill in: growth inhibition reported for "Clc1ccccc1C=NC1CCCCC1" = -5.1

Please fill in: growth inhibition reported for "Oc1c(Br)cc(Br)cc1/C=N/N=C/c1cc(Br)cc(Br)c1O" = -6.7

Please fill in: growth inhibition reported for "CC(C)/C=C(\C#N)C(=O)O" = -3.2

Please fill in: growth inhibition reported for "O=[N+]([O-])c1ccc(S(=O)(=O)/N=C/c2ccccc2)cc1" = 2.2

Please fill in: growth inhibition reported for COC(=O)C12c3ccccc3C3C(c4ccccc41)C32 (stereo not given) = 11.9

Please fill in: growth inhibition reported for COC(=O)C1=C(O)C(C(=O)OC)[C@@]2(O)[C@@H](C(=O)OC)[C@H](C)C[C@@H]1[C@@H]2C(=O)OC (stereo not given in full) = 41.6

Please fill in: growth inhibition reported for "CCCCCCCCNc1ncnc2[nH]ncc12" = 7.15

Please fill in: growth inhibition reported for CN1C2CCC1CC(OC(c1ccccc1)c1ccccc1)C2 (stereo not given) = 11.1

Please fill in: growth inhibition reported for "C/C(CC(C)C)=N\NC(=O)Nc1ccccc1Cl" = 4.5

Please fill in: growth inhibition reported for "CC(C)(C)c1ccc(-c2nc3ccc(Cl)cc3c(=O)o2)cc1" = -26.6

Please fill in: growth inhibition reported for "COC(=O)/C(=C/c1ccccc1)N(C(C)=O)C(C)=O" = 0.05

Please fill in: growth inhibition reported for "COc1cc(CNC(=S)CCCCCCCCCCC(C)C)ccc1O" = -20.1

Please fill in: growth inhibition reported for "COC(=O)C(=O)Cc1cccc(OC(C)=O)c1C(=O)OC" = 8.55

Please fill in: growth inhibition reported for "Cc1[nH]n(-c2ccccc2)c(=S)c1C(=O)c1ccccc1" = -11.7

Please fill in: growth inhibition reported for "O=S=C(c1ccccc1)N1CCc2ccccc21" = 22.4

Please fill in: growth inhibition reported for "O=[N+]([O-])c1cccc(Cc2nc3ccccc3nc2-c2ccccc2)c1" = 34.9

Please fill in: growth inhibition reported for "CNC(=O)NCCc1c[nH]c2ccccc12" = -35.9

Please fill in: growth inhibition reported for "Cc1cccc(-n2c(CC#N)n[nH]c2=S)c1" = 21

Please fill in: growth inhibition reported for "COc1cc(S(=O)(=O)O)ccc1N=N/C(=N\Nc1ccc(S(=O)(=O)O)cc1OC)C(N)=O" = -42.1

Please fill in: growth inhibition reported for COc1ccc(-c2c3c(n(C4OC(COC(C)=O)C(OC(C)=O)C(OC(C)=O)C4OC(C)=O)c(=S)c2C#N)CCC3)cc1 (stereo not given) = 28.8

Please fill in: growth inhibition reported for "CC1(C)CS(=O)(=O)CC(C)(C)C(=O)C1=O" = -25.6

Please fill in: growth inhibition reported for "Nc1ncnc2c1ncn2CCCCCO" = 5.15

Please fill in: growth inhibition reported for "C=CCN(CC=C)CCNc1cc(C)nc(/N=C(\N)Nc2ccc(Cl)c(Cl)c2)n1" = 94.7

Please fill in: growth inhibition reported for "COC(=O)C(Br)(C(=O)OC)C(c1ccccc1)c1ccccc1" = 38.1

Please fill in: growth inhibition reported for "CCCCOC(=O)c1ccccc1OC" = -16.1

Please fill in: growth inhibition reported for CC(O)/C=C/C(CCC(C)CO)C(C)C (stereo not given) = -17

Please fill in: growth inhibition reported for COc1cc(/C=N/N2CN(C(C)C(=O)O)B(NCCC(C)C)N=C2N)cc(OC)c1 (stereo not given) = 0.85

Please fill in: growth inhibition reported for CCC1(CC)SCC(C)(O)NC1=O (stereo not given) = 1.95

Please fill in: growth inhibition reported for "CCOc1ccc(N=Nc2ccc3oc(=O)c(/C(C)=N/NC(=O)CC(=O)Nc4cccc(OC)c4)cc3c2)cc1" = 44.5

Please fill in: growth inhibition reported for CCOC(=O)C(c1ccccc1)C(Cc1ccccc1)(c1ccccc1)c1ccccc1 (stereo not given) = 10.1

Please fill in: growth inhibition reported for "COC1=C(N(C)C)C(=O)c2ccccc2C1=O" = 21.4

Please fill in: growth inhibition reported for "Nc1ccc(OCCCc2c(N)nc(N)nc2N)c(Cl)c1" = 98

Please fill in: growth inhibition reported for "CC(=O)O[C@@H]1[C@H]2[C@@H](OC(=O)c3ccccc3)[C@@H](C)C[C@]2(O)[C@H](OC(C)=O)[C@@]2(C)[C@@H]3CC(C)(C)C(=O)[C@]3(OC(C)=O)C[C@@]12C" = 25

Please fill in: growth inhibition reported for O=C(O)C1CSC2(CCCC2)N1 (stereo not given) = 16.6

Please fill in: growth inhibition reported for NC(=O)OC1CCN(c2cccc(Cl)c2)C1 (stereo not given) = -8.1

Please fill in: growth inhibition reported for COc1ccc(C2c3cc4c(cc3OC(NNS(=O)(=O)c3ccc(C)cc3)C2C)OCO4)cc1 (stereo not given) = -22.4

Please fill in: growth inhibition reported for "CC(C)OC(=O)c1cccnc1" = 16.5

Please fill in: growth inhibition reported for "COc1cccc(/C=C2\SC(=S)N(/C=C3\C(=O)Oc4ccccc4C3=O)C2=O)c1O" = 12.2

Please fill in: growth inhibition reported for "O=S1(=O)c2ccccc2N2CCCc3cc(Cl)cc1c32" = -49.9

Please fill in: growth inhibition reported for NNC(=O)CC(O)C(=O)NN (stereo not given) = -4.7

Please fill in: growth inhibition reported for "CCc1ccc(O[Si](C)(C)C)cc1" = 5.35

Please fill in: growth inhibition reported for "CCCCOC(=O)c1ccc(NC(=O)Nc2cc([N+](=O)[O-])ccc2F)cc1" = 56.4

Please fill in: growth inhibition reported for "OCN(CO)c1ccc2c(c1)Cc1cc(Cl)ccc1-2" = 0.35

Please fill in: growth inhibition reported for "[Zn+2].c1ccc(-c2c3nc(c(-c4ccccc4)c4[n-]c(c(-c5ccccc5)c5nc(c(-c6ccccc6)c6[n-]c2c2ccccc62)-c2ccccc2-5)c2ccccc42)-c2ccccc2-3)cc1" = -37.5

Please fill in: growth inhibition reported for "O=[N+]([O-])c1ccc(Oc2ccccc2-c2ccccc2)c([N+](=O)[O-])c1" = -2
